meta.source: the Kinase Knowledgebase extract (Sharma et al. 2016)

- subject.of.test: PIK3CB;PIK3CG;PIK3CD;PIK3CA (human) (UniProt P48736)
- protocol.description: Inhibition of PIK3CA/PIK3CB/PIK3CD/PIK3CG Kinase Activity
Reported pIC50 by item:
Recall that pIC50 is obtained by taking minus log10 of the concentration measured in molar.

# mol, pIC50
records = [
    ("CC(=O)N1CCN(c2cc(C(=O)O)nc3c(-c4cccc(O)c4)nc(N4CCOCC4)nc23)CC1", 7.10),
]

Task: Identify the reported pIC50 for the following entry. `COCCOc1cc(C(=O)O)nc2c(-c3cc(O)cc(F)c3)nc(N3CCOCC3)nc12`
Output: 7.03
